Target protein (sequence): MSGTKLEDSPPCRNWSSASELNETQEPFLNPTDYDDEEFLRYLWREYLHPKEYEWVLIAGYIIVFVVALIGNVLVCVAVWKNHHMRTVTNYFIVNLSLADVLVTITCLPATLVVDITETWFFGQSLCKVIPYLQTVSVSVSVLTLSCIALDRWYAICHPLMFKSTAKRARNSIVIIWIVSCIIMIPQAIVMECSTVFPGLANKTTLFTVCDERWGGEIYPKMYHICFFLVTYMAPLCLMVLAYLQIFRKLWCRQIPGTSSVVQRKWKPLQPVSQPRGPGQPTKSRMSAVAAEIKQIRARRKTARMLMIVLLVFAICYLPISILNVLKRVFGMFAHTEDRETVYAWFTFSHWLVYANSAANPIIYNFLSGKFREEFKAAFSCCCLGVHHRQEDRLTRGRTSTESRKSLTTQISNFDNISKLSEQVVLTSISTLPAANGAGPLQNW
pIC50: −log10 of the molar value.
Measured attribute: pIC50

Field pIC50 (entry Cc1ccc(-n2nccn2)c(C(=O)N[C@@H]2CCC[C@@H]2Nc2ccc(Cl)cn2)c1 ) reads < 5.00
